- test_details: Drug concentration in total liver in Wistar Han rat at 1 to 2 mg/kg, iv infused for 10 to 20 hrs by LC-MS/MS analysis
- condition_summary: in vivo
property: Ct
Please format your answer as a value with the unit trailing.

INSERT INTO assay_data (compound, property, reported) VALUES
  ('O=C(O)c1c[nH]c2cc(Cl)c(-c3ccc(CC(=O)N4CCOCC4)cc3)cc12', 'Ct', '210 ng/mL');

### Prompt I would be grateful if you could share the reported Ct for COc1cc(/C=C2\CCCN([C@@H](C)c3ccc(F)cc3)C2=O)ccc1-n1cnc(C)c1 .
### Response 1200 ng/mL

### Prompt I would be grateful if you could share the reported Ct for COCCCN1C[C@H](C)N(C(=O)N2Cc3c(NC(=O)c4ccccn4)n[nH]c3C2(C)C)C[C@H]1C .
### Response 170 ng/mL

### Prompt I would be grateful if you could share the reported Ct for CC1(C)CN(CCC#N)C(=O)[C@@H]1Oc1ccc(C#N)c(C(F)(F)F)c1 .
### Response 500 ng/mL
